pIC50: −log10 of the molar value.
Record set: pIC50 | Collagenase 3 (Homo sapiens) | literature, multiple sources.
Endpoint label: pIC50

>  <Molecule>
Cc1cc(COc2ccc(S(=O)(=O)N[C@@H]3CN(S(C)(=O)=O)C[C@@H]3C(=O)NO)cc2)c2ccccc2n1 (relative stereo)

>  <Target or system>
Collagenase 3 (Homo sapiens)

>  <Qualifier sign>
<

>  <Measured number>
5.00

$$$$
>  <Molecule>
CCOC(=O)c1sc2nc(C(=O)NCc3ccc4c(c3)NC(=O)CO4)[nH]c(=O)c2c1C

>  <Target or system>
Collagenase 3 (Homo sapiens)

>  <Qualifier sign>
>

>  <Measured number>
7.00

$$$$
>  <Molecule>
CNC(=O)N1CC[C@@H](NS(=O)(=O)c2ccc(OCc3cc(C)nc4ccccc34)cc2)[C@@](C)(C(=O)NO)C1

>  <Target or system>
Collagenase 3 (Homo sapiens)

>  <Qualifier sign>
<

>  <Measured number>
4.78

$$$$
>  <Molecule>
O=C1COc2ccc(CNC(=O)c3nc4sc5c(c4c(=O)[nH]3)CCOC5)cc2N1

>  <Target or system>
Collagenase 3 (Homo sapiens)

>  <Qualifier sign>
>

>  <Measured number>
7.00

$$$$
>  <Molecule>
CNC(=O)[C@@H](NC(=O)c1ccc(-c2ccc(Br)cc2)o1)C1CCCCC1

>  <Target or system>
Collagenase 3 (Homo sapiens)

>  <Qualifier sign>
=

>  <Measured number>
6.40

$$$$
>  <Molecule>
CNC(=O)[C@@H](NC(=O)c1ccc(-c2cccc(CNC(=O)C3CNCCO3)c2)o1)C(C)C (stereo partly shown)

>  <Target or system>
Collagenase 3 (Homo sapiens)

>  <Qualifier sign>
=

>  <Measured number>
6.43

$$$$
>  <Molecule>
Cc1ccc2nnn(C[C@H]3CC[C@@H](C(=O)c4ccc(OCC5CCCCC5)cc4)[C@@H]3C(=O)O)c(=O)c2c1 (single isomer, unassigned)

>  <Target or system>
Collagenase 3 (Homo sapiens)

>  <Qualifier sign>
=

>  <Measured number>
7.13

$$$$
